Target: T1, human tissue factor pathway inhibitor (TFPI) (human, UniProt P10646 29-304, limits assumed)
T1 construct: bought; also called hTFPI; human TFPI
T1 sequence (looked up): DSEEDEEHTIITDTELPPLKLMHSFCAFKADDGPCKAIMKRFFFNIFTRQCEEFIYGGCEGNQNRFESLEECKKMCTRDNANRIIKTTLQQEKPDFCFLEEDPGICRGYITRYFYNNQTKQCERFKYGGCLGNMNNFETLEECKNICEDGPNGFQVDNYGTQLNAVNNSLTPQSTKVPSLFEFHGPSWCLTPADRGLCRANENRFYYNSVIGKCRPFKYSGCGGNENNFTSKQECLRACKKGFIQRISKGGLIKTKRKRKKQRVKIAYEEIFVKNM
Test: competitive ELISA
variant/wild-type overview
quantityMeasured: variant/wild-type (ratio)

binder="4B7 HC_N61G HC_D62V (Fab, V domains shown) VH: QVQLQQSGPGLVKPSQTLSLTCAISGDSVSSNSAAWSWIRQSPGRGLEWLGIIYKRSKWYGVYAVSVKSRITINPDTSKNQFSLQLNSVTPEDTAVYYCARWHSDKHWGFDYWGQGTLVTVSS VL: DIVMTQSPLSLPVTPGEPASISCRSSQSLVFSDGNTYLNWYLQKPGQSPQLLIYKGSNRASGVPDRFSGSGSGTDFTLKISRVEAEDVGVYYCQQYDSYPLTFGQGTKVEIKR" valuemeasured=8
binder="4B7 LC_D97M (Fab, V domains shown) VH: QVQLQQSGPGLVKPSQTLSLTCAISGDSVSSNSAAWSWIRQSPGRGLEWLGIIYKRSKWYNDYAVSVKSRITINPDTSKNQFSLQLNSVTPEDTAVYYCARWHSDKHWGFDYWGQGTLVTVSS VL: DIVMTQSPLSLPVTPGEPASISCRSSQSLVFSDGNTYLNWYLQKPGQSPQLLIYKGSNRASGVPDRFSGSGSGTDFTLKISRVEAEDVGVYYCQQYMSYPLTFGQGTKVEIKR" valuemeasured=2.4
binder="4B7 HC_H103D (Fab, V domains shown) VH: QVQLQQSGPGLVKPSQTLSLTCAISGDSVSSNSAAWSWIRQSPGRGLEWLGIIYKRSKWYNDYAVSVKSRITINPDTSKNQFSLQLNSVTPEDTAVYYCARWDSDKHWGFDYWGQGTLVTVSS VL: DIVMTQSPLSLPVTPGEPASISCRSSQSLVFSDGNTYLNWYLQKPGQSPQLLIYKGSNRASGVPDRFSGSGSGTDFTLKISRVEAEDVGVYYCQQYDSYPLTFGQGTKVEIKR" valuemeasured=2.4
